FYI, the data here is from PubChem BioAssay (NCATS).

target: Cytochrome P450 3A4 (Homo sapiens); experiment: qHTS Assay for Inhibitors and Substrates of Cytochrome P450 3A4 (AID 884); details: recombinant CYP3A4, Luciferin-PPXE luminescence; series mostly up to 57.1 µM; note: nearly all actives have a fitted effect of over 50% in size
Records with an inconclusive call do not appear. Calls of active or inactive are those of the source. Calls come from the whole dose curve; as a rule, active = well fitted inhibition curve with a large enough effect; inconclusive = small, poorly fitted or top-dose-only effect; inactive = no such curve, though single readings can be large or run the other way.
Please state which outcome applies, choosing from 1 = active, 0 = inactive

{"test.smiles": "COc1ccccc1-c1ccc2ncnc(N(C)C)c2c1", "tested.system": "Cytochrome P450 3A4 (Homo sapiens)", "classification": 1}

[ask] GET /call?item= `COc1ccccc1CNc1cc(-c2ccccc2C(F)(F)F)ncn1` returns the recorded outcome of this test.
[reply] 0

[ask] GET /call?item= `N#Cc1cccc(NC(=O)N2CC[C@@]3(CCCN(S(=O)(=O)c4ccccc4)C3)C2)c1` returns the recorded outcome of this test.
[reply] 1

* * *

biological target: Cytochrome P450 3A4 (Homo sapiens); experiment: qHTS Assay for Inhibitors and Substrates of Cytochrome P450 3A4 (AID 884); conditions: recombinant CYP3A4, Luciferin-PPXE luminescence; series mostly up to 57.1 µM; note: nearly all actives have a fitted effect of over 50% in size
Results filed as inconclusive are left out. Calls of active or inactive are those of the source. Calls come from the whole dose curve; as a rule, active = well fitted inhibition curve with a large enough effect; inconclusive = small, poorly fitted or top-dose-only effect; inactive = no such curve, though single readings can be large or run the other way.
Please state which outcome applies, choosing from active, inactive

[ask] GET /call?item= `COc1ccccc1-c1cncnc1NCc1cnc(C)cn1` returns the recorded outcome of this test.
[reply] active

[ask] GET /call?item= `O=C(c1cnccn1)N1CCC2(CC1)CN(C(c1ccccc1)c1ccccc1)C2` returns the recorded outcome of this test.
[reply] inactive

[ask] GET /call?item= `Cc1cnc(CNc2nc(-c3ccccc3C(F)(F)F)nc3ccccc23)cn1` returns the recorded outcome of this test.
[reply] active

[ask] GET /call?item= `Cc1ccccc1-c1cncnc1NCc1cccnc1` returns the recorded outcome of this test.
[reply] active

[ask] GET /call?item= `O=C(O)c1cc(=O)c2cccc(O)c2[nH]1` returns the recorded outcome of this test.
[reply] inactive

[ask] GET /call?item= `COc1cccc(Cn2c(=O)c(-c3cccc(C#N)c3)nc3cnc(OC)nc32)c1` returns the recorded outcome of this test.
[reply] active

[ask] GET /call?item= N[C@H](C(=O)O)C(O)C(O)C(O)CO (stereo partly drawn) returns the recorded outcome of this test.
[reply] inactive

* * *

molecular target: Ubiquitin carboxyl-terminal hydrolase 1 (Homo sapiens); assay: Inhibitors of USP1/UAF1: Pilot qHTS (AID 504865); conditions: purified USP1/UAF1, Ub-rhodamine cleavage fluorescence; series mostly up to 54.9 µM;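 note: rhodamine fluorescence freed from ubiquitin-rhodamine substrate followed over time; top concentration of the series differs between compounds; % is set by controls: 0 for no effect and ±100 for the full control effect; nearly all actives have a fitted effect of over 35% in size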
Inconclusive results are not listed. The source made the active and inactive calls. The call rests on the fitted dose curve; in most records, active means well fitted inhibition curve with a large enough effect; inconclusive means small, poorly fitted or top-dose-only effect; inactive means flat fitted curve, though single readings scatter.
Please state which outcome applies, choosing from active, inactive

Please review the entries below; each comes with its answer.
{"molecule": "COc1ccc(Oc2ncc3nc(-c4ccc(Cl)cc4)c(=O)n(C4CC4)c3n2)cc1", "classification": "inactive"}
{"molecule": "CN(C)c1ncc2nc(-c3ccc(F)cc3)c(=O)n(CCc3ccccc3)c2n1", "classification": "inactive"}
{"molecule": "COc1ccc2[nH]cc(CCNc3cc(-c4ccoc4)ncn3)c2c1", "classification": "inactive"}

[ask] GET /call?item= `CCNc1ncc2nc(-c3ccc(Cl)cc3)c(=O)n(Cc3cccc(OC)c3)c2n1` returns the recorded outcome of this test.
[reply] inactive

[ask] GET /call?item= CC1=CC2C(CC1=O)C(C)=CCC2C(C)C (configuration not stated) returns the recorded outcome of this test.
[reply] inactive

[ask] GET /call?item= `O=c1c(CCc2ccccc2)nc2cncnc2n1Cc1ccccc1Cl` returns the recorded outcome of this test.
[reply] inactive

[ask] GET /call?item= `CN(C)C(=O)c1ccc(-c2cncnc2NCc2ccccc2)cc1` returns the recorded outcome of this test.
[reply] inactive

[ask] GET /call?item= `Cc1noc(C)c1-c1ccc2ncnc(N3CCOCC3)c2c1` returns the recorded outcome of this test.
[reply] inactive

[ask] GET /call?item= `CNc1nc(-c2ccccc2C)nc2ccccc12` returns the recorded outcome of this test.
[reply] inactive

[ask] GET /call?item= `COc1ccc(-c2nc3cnc(OC)nc3n(C)c2=O)cc1` returns the recorded outcome of this test.
[reply] inactive

[ask] GET /call?item= `CN(C)Cc1ccccc1-c1nccc(Nc2ccc(F)cc2)n1` returns the recorded outcome of this test.
[reply] inactive

[ask] GET /call?item= `Cc1nc2cnc(N(C)C)nc2n(CCc2ccccc2)c1=O` returns the recorded outcome of this test.
[reply] inactive

* * *

target: Dual specificity protein kinase CLK4 (Homo sapiens) (UniProt Q9HAZ1); experiment: qHTS Assay for Inhibitors of CDC-like Kinase 4 (ADP-FP Assay) (AID 1795); details: Transcreener ADP fluorescence polarization; series mostly up to 50 µM; note: nearly all actives have a fitted effect of over 60% in size
Sequence (Q9HAZ1 whole entry, looked up): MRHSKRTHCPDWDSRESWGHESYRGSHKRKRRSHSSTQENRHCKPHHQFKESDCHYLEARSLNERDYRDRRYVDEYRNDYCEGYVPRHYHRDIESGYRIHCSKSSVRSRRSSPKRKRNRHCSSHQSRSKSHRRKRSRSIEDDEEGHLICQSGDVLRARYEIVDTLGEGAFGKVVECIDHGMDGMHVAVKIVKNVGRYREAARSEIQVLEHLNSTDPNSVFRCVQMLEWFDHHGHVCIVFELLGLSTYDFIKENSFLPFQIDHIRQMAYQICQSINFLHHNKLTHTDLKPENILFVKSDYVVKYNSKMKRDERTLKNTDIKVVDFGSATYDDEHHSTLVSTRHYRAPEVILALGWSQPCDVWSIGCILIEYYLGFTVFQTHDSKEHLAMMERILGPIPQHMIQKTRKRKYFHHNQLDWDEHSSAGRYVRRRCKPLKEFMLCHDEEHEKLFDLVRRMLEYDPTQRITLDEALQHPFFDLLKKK
Inconclusive results are not listed. Calls of active or inactive are those of the source. The call rests on the fitted dose curve; in most records, active means well fitted inhibition curve with a large enough effect; inconclusive means small, poorly fitted or top-dose-only effect; inactive means flat fitted curve, though single readings scatter.
Please state which outcome applies, choosing from active, inactive

Please review the entries below; each comes with its answer.
{"test.smiles": "CN1CCN(c2ncnc3ccc(-c4ccoc4)cc23)CC1", "classification": "active"}
{"test.smiles": "COCCNc1nc(-c2c(C)noc2C)nc2ccccc12", "classification": "inactive"}
{"test.smiles": "N#CCCn1c(=O)c(-c2ccccc2)nc2cnc(N3CCOCC3)nc21", "classification": "inactive"}
{"test.smiles": "COc1ncc2nc(-c3cccs3)c(=O)n(Cc3cccs3)c2n1", "classification": "inactive"}
{"test.smiles": "CN1CCN(c2ncc3nc(-c4cc(F)cc(F)c4)c(=O)n(CCC#N)c3n2)CC1", "classification": "inactive"}
{"test.smiles": "COc1ccccc1-c1cncnc1Nc1ccccc1", "classification": "inactive"}
{"test.smiles": "O=c1c(-c2ccc(Cl)cc2)nc2cnc(N3CCOCC3)nc2n1CCc1ccccc1", "classification": "inactive"}
{"test.smiles": "c1cncc(-c2cc(-n3ccnc3)ncn2)c1", "classification": "active"}
{"test.smiles": "N#CCCn1c(=O)c(-c2cccs2)nc2cnc(Nc3ccccc3)nc21", "classification": "inactive"}
{"test.smiles": "Cc1nc2cnc(N3CCN(C)CC3)nc2n(C[C@H]2CCCO2)c1=O", "classification": "inactive"}

[ask] GET /call?item= `COc1cccc(Cn2c(=O)c(C)nc3cnc(N(C)C)nc32)c1` returns the recorded outcome of this test.
[reply] inactive

[ask] GET /call?item= `COc1ccc2[nH]cc(CCNc3ccnc(-c4cccc(C#N)c4)n3)c2c1` returns the recorded outcome of this test.
[reply] active

[ask] GET /call?item= `CN(C)c1ncnc2ccc(-c3ccc4c(c3)OCO4)cc12` returns the recorded outcome of this test.
[reply] active

[ask] GET /call?item= `Cc1ccccc1-c1cncnc1N1CCN(C)CC1` returns the recorded outcome of this test.
[reply] inactive

[ask] GET /call?item= `FC(F)(F)c1ccccc1-c1ccc2ncnc(NCCN3CCOCC3)c2c1` returns the recorded outcome of this test.
[reply] inactive

[ask] GET /call?item= `Cc1cnc(CNc2nc(-c3cccc(NS(C)(=O)=O)c3)nc3ccccc23)cn1` returns the recorded outcome of this test.
[reply] inactive

[ask] GET /call?item= `FC(F)(F)c1ccccc1-c1nccc(NCCN2CCOCC2)n1` returns the recorded outcome of this test.
[reply] inactive

[ask] GET /call?item= `COc1ccc(CNc2ccnc(-c3c(C)noc3C)n2)c(OC)c1` returns the recorded outcome of this test.
[reply] inactive

[ask] GET /call?item= `Cc1cnc(CNc2ncnc3ccc(-c4ccccc4C(F)(F)F)cc23)cn1` returns the recorded outcome of this test.
[reply] inactive

[ask] GET /call?item= `COc1ccc2[nH]cc(CCNc3ccnc(-c4ccccc4C(F)(F)F)n3)c2c1` returns the recorded outcome of this test.
[reply] inactive

[ask] GET /call?item= `COc1ccc(-c2nc3cnc(OC)nc3n(C[C@H]3CCCO3)c2=O)cc1` returns the recorded outcome of this test.
[reply] inactive

[ask] GET /call?item= `CN(C)C(=O)c1ccc(-c2cc(N(C)Cc3ccco3)ncn2)cc1` returns the recorded outcome of this test.
[reply] inactive

[ask] GET /call?item= `COc1ncc2nc(CCc3ccccc3)c(=O)n(CCc3ccccc3)c2n1` returns the recorded outcome of this test.
[reply] inactive

[ask] GET /call?item= `CS(=O)(=O)Nc1cccc(-c2cc(NCc3ccccc3)ncn2)c1` returns the recorded outcome of this test.
[reply] inactive

* * *

experiment: qHTS Assay for Lipid Storage Modulators (AID 1519); conditions: Drosophila S3 cells, BODIPY lipid droplet/cell ratio, laser cytometry; measured here: lipid channel max response; cells loaded with oleic acid
Records with an inconclusive call do not appear.
readout.type: max response (%)
One number for each entry, in %.

Dear colleague, could you please provide max response for the molecules listed below?
1. COc1ccccc1CN1CC[C@@]2(CCCN(S(=O)(=O)c3ccccc3)C2)C1
2. COc1cc2c3cc1Oc1c(OC)c(OC)cc4c1[C@@H](Cc1ccc(O)c(c1)Oc1ccc(cc1)C[C@@H]3N(C)CC2)N(C)CC4
3. COc1ccc(C(=O)N2CCC3(CCCN(Cc4ccccc4)C3)CC2)cc1

[reply]
1: 10.2; 2: 29.4; 3: 6.86

Dear colleague, could you please provide max response for the molecules listed below?
1. Cc1ccccc1-c1ccc2ncnc(N(C)C)c2c1
2. N#Cc1ccc(CN2CC3(CCN(C(=O)c4ccco4)CC3)C2)cc1

[reply]
[-3.73, 23.7]
